Target: Estrogen receptor (Rattus norvegicus) (UniProt P06211+Q62986)
Test: Binding affinity for rat uterine estrogen receptor relative to estradiol
Type: protein assay
Quantity: RBA (%)

Smiles string: O=C1C(c2ccc(O)cc2)=C(c2ccc(O)cc2)c2ccc(O)cc21
Study target: Estrogen receptor (Rattus norvegicus) (UniProt P06211+Q62986)
Value measured: 23
--
Smiles string: Oc1ccc2c(c1)Cc1c-2c2ccccc2c2ccccc12
Study target: Estrogen receptor (Rattus norvegicus) (UniProt P06211+Q62986)
Value measured: 0.01

I = Oc1ccc(C2=C(c3ccc(O)cc3)c3ccc(O)cc3CC2)cc1
II = Oc1ccc(C2=C(c3ccc(O)cc3)c3ccc(O)cc3C2)cc1
Hi there, can you help? I need to know whether I or II has lower measured RBA. Please respond with the label that marks your chosen entry.
II

P = O=C1C(c2ccccc2)=C(c2ccccc2)c2ccc(O)cc21
Q = Oc1ccc2c(c1)CC(c1ccccc1)=C2c1ccccc1
Hi there, can you help? I need to know whether P or Q has lower measured RBA. Please respond with the label that marks your chosen entry.
Q
